Values were extracted from the NIST ThermoML archive (doi:10.1021/je060184i).

Catalogue of vapor or sublimation pressure readings, one per entry.
testConditions: 343.15 K; Liquid; Closed cell (Static) method
Give your result in kPa as a bare value.

molecule	vapor or sublimation pressure [kPa]
CCCOC(C)=O [propyl ethanoate]	34.64
C=CCCCC	123.79
C1CCCCC1	72.39

The record that follows has no vapor or sublimation pressure shown yet.
Q) Item under review: `CCCCCCC` . Reported vapor or sublimation pressure?
A) 40.43

====

testConditions: 313.15 K; Liquid; Closed cell (Static) method
observable: vapor or sublimation pressure (kPa)
Give your result in kPa as a bare value.

molecule	vapor or sublimation pressure, kPa
CCCOC(C)=O [propyl ethanoate]	9.645
C1CCCCC1	24.65

Q) Item under review: `C=CCCCC` . Reported vapor or sublimation pressure?
A) 44.98

Q) Again, but for `CCCCCCC`
A) 12.32
